Target: Inhibitor of nuclear factor kappa-B kinase subunit beta (Homo sapiens) (UniProt O14920);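 further: values are mean percent inhibition of IKKB, part of the GSK PKIS screening data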
Sequence (O14920 whole entry): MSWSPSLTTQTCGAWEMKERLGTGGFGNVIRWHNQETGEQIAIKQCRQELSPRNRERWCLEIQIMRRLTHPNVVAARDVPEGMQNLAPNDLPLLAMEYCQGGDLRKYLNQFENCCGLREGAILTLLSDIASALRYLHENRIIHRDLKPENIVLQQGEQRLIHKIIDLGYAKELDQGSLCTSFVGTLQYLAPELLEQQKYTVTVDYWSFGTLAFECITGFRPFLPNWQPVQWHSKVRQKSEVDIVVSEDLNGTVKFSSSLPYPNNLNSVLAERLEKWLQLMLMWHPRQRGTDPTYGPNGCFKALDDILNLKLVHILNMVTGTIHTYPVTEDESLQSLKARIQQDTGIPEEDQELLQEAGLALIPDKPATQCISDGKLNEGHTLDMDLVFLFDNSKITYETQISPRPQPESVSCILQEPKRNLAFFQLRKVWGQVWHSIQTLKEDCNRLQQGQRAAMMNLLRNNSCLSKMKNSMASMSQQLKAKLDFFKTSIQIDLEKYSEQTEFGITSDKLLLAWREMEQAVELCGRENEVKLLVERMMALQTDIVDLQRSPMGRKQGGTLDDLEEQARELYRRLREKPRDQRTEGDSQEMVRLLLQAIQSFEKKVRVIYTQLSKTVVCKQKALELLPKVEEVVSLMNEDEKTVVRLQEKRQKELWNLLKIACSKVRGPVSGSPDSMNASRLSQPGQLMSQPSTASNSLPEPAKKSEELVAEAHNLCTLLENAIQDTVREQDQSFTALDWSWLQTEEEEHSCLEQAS
Conditions: at 0.1 µM
Give measured inhibition for each item. Keep answers brief.
Answers are plain numbers, in %.

Completed entries (count: 4):
- MOLECULE: "COc1ccc(-c2ccc3c(NC(=O)C4CC4)n[nH]c3n2)cc1"
  UNITS TEXT: "%"
  OBS VALUE: 4.51
- MOLECULE: "Nc1nccc(-c2c(-c3ccc(F)cc3)ncn2C2CCC(O)CC2)n1 (stereo unspecified)"
  UNITS TEXT: "%"
  OBS VALUE: 0.1
- MOLECULE: "NS(=O)(=O)c1ccc(N/N=C2\\C(=O)Nc3ccc(C(=O)NCCCn4ccnc4)cc32)cc1"
  UNITS TEXT: "%"
  OBS VALUE: 12.3
- MOLECULE: "CN(C)CCOc1ccc(-c2cc(-c3ccc4c(c3)CCC4=NO)c(-c3ccncc3)o2)cc1"
  UNITS TEXT: "%"
  OBS VALUE: -1.54

Provide the reported inhibition of each entry below, same order.
1. O=C(NCC1CC1)c1ccc(-c2cccc(C(=O)NC3CC3)c2)cc1
2. CCc1nccc2c1nc(-c1nonc1N)n2CC

[1.17, 0.02]

---

What inhibition was measured for each of the following?
Target: Receptor tyrosine-protein kinase erbB-2 (Homo sapiens) (UniProt P04626)
Sequence (P04626 whole entry): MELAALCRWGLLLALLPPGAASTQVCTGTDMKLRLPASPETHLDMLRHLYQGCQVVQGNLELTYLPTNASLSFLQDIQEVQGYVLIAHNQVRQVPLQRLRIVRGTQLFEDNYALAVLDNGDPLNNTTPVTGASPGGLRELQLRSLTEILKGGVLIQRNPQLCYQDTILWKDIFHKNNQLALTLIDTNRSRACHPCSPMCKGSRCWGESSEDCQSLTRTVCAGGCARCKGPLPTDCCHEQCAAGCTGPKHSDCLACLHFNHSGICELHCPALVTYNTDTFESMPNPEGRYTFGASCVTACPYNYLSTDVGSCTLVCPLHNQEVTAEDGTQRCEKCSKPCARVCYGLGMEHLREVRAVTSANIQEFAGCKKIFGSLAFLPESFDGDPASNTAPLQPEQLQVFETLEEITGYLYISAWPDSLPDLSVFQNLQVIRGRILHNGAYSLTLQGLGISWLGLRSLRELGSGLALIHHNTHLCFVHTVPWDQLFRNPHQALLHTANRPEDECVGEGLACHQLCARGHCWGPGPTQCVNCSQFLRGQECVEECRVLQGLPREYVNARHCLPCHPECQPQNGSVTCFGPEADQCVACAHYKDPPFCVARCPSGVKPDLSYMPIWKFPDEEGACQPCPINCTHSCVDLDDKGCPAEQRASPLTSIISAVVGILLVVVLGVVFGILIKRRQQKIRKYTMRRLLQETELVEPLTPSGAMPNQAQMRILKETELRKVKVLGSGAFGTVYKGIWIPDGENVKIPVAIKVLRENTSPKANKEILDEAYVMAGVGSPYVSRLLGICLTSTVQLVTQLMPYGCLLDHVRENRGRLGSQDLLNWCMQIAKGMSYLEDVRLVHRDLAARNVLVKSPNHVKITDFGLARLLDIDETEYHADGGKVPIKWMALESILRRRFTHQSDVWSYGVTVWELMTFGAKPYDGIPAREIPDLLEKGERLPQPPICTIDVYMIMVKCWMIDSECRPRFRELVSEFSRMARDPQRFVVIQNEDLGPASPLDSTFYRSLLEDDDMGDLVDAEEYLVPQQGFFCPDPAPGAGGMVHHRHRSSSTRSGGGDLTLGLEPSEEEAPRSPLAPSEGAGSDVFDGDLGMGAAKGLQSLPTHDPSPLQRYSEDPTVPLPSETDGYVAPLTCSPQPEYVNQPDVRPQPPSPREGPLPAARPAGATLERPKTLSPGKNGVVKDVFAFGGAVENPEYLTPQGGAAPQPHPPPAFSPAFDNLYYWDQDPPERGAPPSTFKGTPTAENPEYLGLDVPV
Details: at 1 µM
Description: GSK_PKIS: ERBB2 mean inhibition at 1 uM [Nanosyn]
Answers are plain numbers, in %.

In the examples that follow, each entry is paired with its recorded inhibition.
- MOLECULAR STRING: "CCc1ccc(Oc2nccc(-c3c(-c4ccc(F)cc4)ncn3C3CCNCC3)n2)cc1"
  MEASURED PARAMETER: "inhibition"
  OBS VALUE: 7.71
- MOLECULAR STRING: "C[C@@H](Oc1cc(-n2cnc3ccc(OC4CCN(C)CC4)cc32)sc1C(N)=O)c1ccccc1Cl"
  MEASURED PARAMETER: "inhibition"
  OBS VALUE: 2.65
- MOLECULAR STRING: "O=C(Nc1n[nH]c2nc(-c3ccc(O)cc3)c(Br)cc12)C1CC1"
  MEASURED PARAMETER: "inhibition"
  OBS VALUE: 4.82
- MOLECULAR STRING: "O=C1NC(=O)C(c2cccc(Cl)c2)=C1Nc1ccc(Cl)c(C(=O)O)c1"
  MEASURED PARAMETER: "inhibition"
  OBS VALUE: 1.74
- MOLECULAR STRING: "Cc1nnc(-c2ccc(C)c(-c3ccc(C(=O)NCc4ccc(Cl)cc4)cc3)c2)o1"
  MEASURED PARAMETER: "inhibition"
  OBS VALUE: 4.99
- MOLECULAR STRING: "Clc1ccc(CNc2nccc(-c3cnn4ncccc34)n2)cc1"
  MEASURED PARAMETER: "inhibition"
  OBS VALUE: 2.99
- MOLECULAR STRING: "COc1cccc(-n2cnc3c(N/N=C/c4ccncc4)ncnc32)c1"
  MEASURED PARAMETER: "inhibition"
  OBS VALUE: 7.49
- MOLECULAR STRING: "COc1ccc(C2=C(N3CCc4ccccc43)C(=O)NC2=O)cc1"
  MEASURED PARAMETER: "inhibition"
  OBS VALUE: 2.07

Batch of 2 compounds: report inhibition for each.
1. c1ccc(Oc2ccc(Nc3ncc(-c4ccccc4)o3)cc2)cc1
2. CN(C)CCCNc1nccc(-c2c(-c3ccc(F)cc3)nn3cc(C(F)(F)F)ccc23)n1

1: 1.41; 2: -1.57

---

Provide the reported inhibition of each item.
Biological target: Ribosomal protein S6 kinase alpha-5 (Homo sapiens);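 further: mean inhibition of MSK1, from screening of the GSK PKIS inhibitor set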
Conditions: at 1 µM
Numbers only, in %.

Worked examples follow.
- MOLECULAR STRING: "FC(F)(F)c1cccc(Nc2nccc(-c3cnn4nc(-c5ccccc5)ccc34)n2)c1"
  inhibition (%): 0.17
- MOLECULAR STRING: "CN(C)c1ccc2c(c1)/C(=C/Nc1ccc(S(N)(=O)=O)cc1)C(=O)N2"
  inhibition (%): 4.05
- MOLECULAR STRING: "O=C(Nc1n[nH]c2cc(-c3cc(F)ccc3F)ccc12)C1CC1"
  inhibition (%): 1.12
- MOLECULAR STRING: "COc1cc2ncn(-c3cc(OCCc4ccccc4)c(C(N)=O)s3)c2cc1OC"
  inhibition (%): 0.4
- MOLECULAR STRING: "Cc1nnc(-c2ccc(C)c(-c3ccc(C(=O)NCc4ccc(Cl)cc4)cc3)c2)o1"
  inhibition (%): 1.55
- MOLECULAR STRING: "CCc1nccc2c1nc(-c1nonc1N)n2CC"
  inhibition (%): 37.7
- MOLECULAR STRING: "NS(=O)(=O)c1ccc(N/N=C2\\C(=O)Nc3ccc(C(=O)NCCCn4ccnc4)cc32)cc1"
  inhibition (%): 11.1
- MOLECULAR STRING: "CCS(=O)(=O)c1ccc(OC)c(Nc2ncc(-c3cccc(-c4ccccc4F)c3)o2)c1"
  inhibition (%): 1.42

Please look at the items below and tell me inhibition for each one, in order.
1. O=C(Nc1n[nH]c2cc(-c3ccccc3)ccc12)C1CC1
2. O=C1Nc2ccccc2/C1=C/Nc1ccc(-n2cncn2)cc1
3. COc1cccc(-n2cnc3c(N/N=C/c4ccncc4)ncnc32)c1
4. CNC(=O)c1cncc(/C=C/c2c(C)cccc2C)c1
5. COc1cc(Nc2ncc3c(C)nc(-c4cccc(C(F)(F)F)c4)n3n2)cc(OC)c1OC

1: 5.56; 2: 8.54; 3: 1.02; 4: -0.95; 5: 5.2

Quick batch: inhibition for everything below.
1. O=C(NCC1CC1)c1ccc(-c2cccc(C(=O)NC3CC3)c2)cc1
2. O=C(Nc1n[nH]c2nc(-c3ccco3)ccc12)C1CC1
3. CN1CCN(CCCNc2nc3ccc(Oc4ccc(NC(=O)Nc5cc(C(F)(F)F)ccc5F)cc4)cc3[nH]2)CC1
4. Fc1ccc(-c2ncn(C3CCNCC3)c2-c2ccnc(Oc3ccc4c(c3)OCO4)n2)cc1

2.84
8.4
-0.08
-3.44

Could you report inhibition for every entry in the following list?
1. Fc1ccc(-c2ncn(CCCN3CCOCC3)c2-c2ccncc2)cc1
2. O=C1Nc2ccc(I)cc2C1=Cc1cc(Br)c(O)c(Br)c1

-0.79
1.77

Fill in inhibition for each of the 4 compounds listed.
1. NC(=O)Cc1ccccc1Oc1nccc(-c2c(-c3ccc(F)cc3)ncn2C2CCNCC2)n1
2. CCc1ccc(Oc2nccc(-c3c(-c4ccc(F)cc4)ncn3C3CCNCC3)n2)cc1
3. NC(=O)c1ccc(Oc2nccc(-c3c(-c4ccc(F)cc4)ncn3C3CCNCC3)n2)cc1
4. CCC(=O)Nc1ccc(C)c(-c2ccc(C(=O)NCC3CC3)cc2)c1

1. 1.53
2. 4.23
3. -1.95
4. -0.98

---

Biological target: Phosphatidylinositol 4,5-bisphosphate 3-kinase catalytic subunit delta isoform (Homo sapiens) (UniProt O00329);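 further: reported values are mean percent inhibition of PI3K-delta activity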
Sequence (whole entry): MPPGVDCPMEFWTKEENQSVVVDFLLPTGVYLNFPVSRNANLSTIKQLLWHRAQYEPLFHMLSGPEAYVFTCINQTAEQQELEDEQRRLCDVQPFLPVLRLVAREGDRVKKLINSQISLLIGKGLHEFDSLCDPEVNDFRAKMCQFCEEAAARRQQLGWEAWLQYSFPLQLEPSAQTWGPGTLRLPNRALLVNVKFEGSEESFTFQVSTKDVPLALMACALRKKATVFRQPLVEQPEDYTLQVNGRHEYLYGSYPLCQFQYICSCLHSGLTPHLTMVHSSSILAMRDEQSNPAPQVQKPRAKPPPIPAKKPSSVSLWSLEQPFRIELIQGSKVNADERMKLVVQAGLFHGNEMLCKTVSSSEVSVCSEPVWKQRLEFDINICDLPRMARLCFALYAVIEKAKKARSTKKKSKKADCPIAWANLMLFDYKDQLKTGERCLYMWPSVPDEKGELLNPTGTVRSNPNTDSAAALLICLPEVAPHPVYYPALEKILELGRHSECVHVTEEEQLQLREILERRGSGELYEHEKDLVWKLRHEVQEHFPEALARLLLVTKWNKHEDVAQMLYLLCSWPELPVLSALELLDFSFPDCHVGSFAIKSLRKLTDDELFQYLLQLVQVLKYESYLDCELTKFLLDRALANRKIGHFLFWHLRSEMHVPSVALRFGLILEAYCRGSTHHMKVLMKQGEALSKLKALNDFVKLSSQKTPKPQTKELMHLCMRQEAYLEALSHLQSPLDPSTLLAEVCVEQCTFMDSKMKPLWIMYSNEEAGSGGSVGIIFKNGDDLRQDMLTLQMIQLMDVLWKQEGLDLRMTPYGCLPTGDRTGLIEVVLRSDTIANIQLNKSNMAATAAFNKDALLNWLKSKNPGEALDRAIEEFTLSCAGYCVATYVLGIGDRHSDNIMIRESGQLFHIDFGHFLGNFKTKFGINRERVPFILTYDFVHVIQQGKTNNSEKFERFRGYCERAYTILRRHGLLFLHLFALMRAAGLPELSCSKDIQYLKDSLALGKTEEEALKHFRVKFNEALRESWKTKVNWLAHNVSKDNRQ
Conditions: at 1 µM
Provide the reported inhibition of each item.
Hi, when you answer, please include the unit after the number. Thanks!

Consider the reported inhibition for these compounds:
- COMPOUND: "Fc1ccc(-c2nc3n(c2-c2ccncc2)CCS3)cc1"
  OBS VALUE: "4.9%"
- COMPOUND: "O=C1NC(=O)C(c2cccc(Cl)c2)=C1Nc1ccc(Cl)c(C(=O)O)c1"
  OBS VALUE: "-0.43%"
- COMPOUND: "Fc1ccc(-c2ncn(C3CCNCC3)c2-c2ccnc(Oc3ccc4c(c3)OCO4)n2)cc1"
  OBS VALUE: "3.24%"
- COMPOUND: "NS(=O)(=O)c1ccc(Nc2cc(-c3ccc(O)c(F)c3)n[nH]2)cc1"
  OBS VALUE: "2.48%"
- COMPOUND: "NCc1ccc(-n2c(-c3nonc3N)nc3cnccc32)cc1"
  OBS VALUE: "6.07%"

# per-item lookup of inhibition; items listed below
1. COc1cc2ncn(-c3cc(OCc4ccccc4C(F)(F)F)c(C(C)=O)s3)c2cc1OC
2. c1ccc(Oc2ccc(Nc3ncc(-c4ccccc4)o3)cc2)cc1
3. COC(=O)Nc1nc2ccc(Sc3ccc(NC(=O)Nc4cc(C(F)(F)F)ccc4F)cc3)cc2[nH]1
4. Fc1ccc(-c2ncn(CCCN3CCOCC3)c2-c2ccncc2)cc1
5. Nc1nccc(-c2c(-c3ccc(F)cc3)ncn2C2CCC(O)CC2)n1 (stereo not given)

["1.51%", "7.88%", "10.2%", "2.95%", "7.23%"]
